The reported measurements were obtained from a melting point compilation (Tetko et al.; mined from patent text by program, amines drawn as free bases though some values may be those of a salt).

Listed here are compounds together with their documented melting point.

COc1cc(-c2nn(C)c(C(F)(F)F)c2Br)c(F)cc1Cl: 85 to 86 °C
CCCCCCCCC#CCCCCCCCC(=O)Nc1nc(CC(=O)O)cs1: 95.5 to 96.5 °C
CN1C(=O)C(NC(=O)CC2CCCCC2)N=C(N2CCCCCC2)c2ccccc21 (stereo not drawn): 205 to 207 °C
CN(C)CCc1c(C(=O)O)[nH]c2ccc(C[C@H]3COC(=O)N3)cc12: 230 °C
CC(C)(C)c1cc2c(c(-c3nc4ncccc4o3)c1)CCC2: 198 to 200 °C
CCOC(=O)c1c(-c2cnccn2)ssc1=S: 125 °C

compound O=C(c1ccc(Cl)cc1)c1ccc2c(c1)C(=O)N(Cc1cccnc1)C2=O , melting point observed: 132 to 134 °C

compound COC(=O)CCCC#Cc1cc(Cl)ccc1NS(=O)(=O)c1ccc2nc(N)oc2c1 , melting point observed: 135 °C

compound Cn1nc(-c2c(F)cccc2Cl)nc1-c1ccc(COc2ncc(Cl)cc2Cl)c(Cl)c1 , melting point observed: 153 to 155 °C

compound CCOC(=Cc1ccc(-c2cccc(N(C)C(=O)NC3CCCCC3)c2)cc1)C(=O)O , melting point observed: 85 °C

----------
Listed here are compounds together with their documented melting point.

CN1CCN(Cc2ccc(NC(=O)N3CCCc4cc(Oc5ccnc(N)n5)ccc43)cc2C(F)(F)F)CC1: 120 to 123 °C

compound CCOCc1nc2c(N)nc3cccnc3c2n1CCCCCC(=O)N1CCOCC1 , melting point observed: 168 to 170 °C

compound Oc1cccc(-c2nc(Nc3ccc(Cl)cc3)c3ccccc3n2)n1 , melting point observed: > 350 °C

compound CC(C)(C)OC(=O)Nc1cc(OC(C)(C)C)c(C#Cc2ccc(F)cc2)cc1N , melting point observed: 183 °C

compound O=c1c2cc(Cl)ccc2ccc2ncccc12 , melting point observed: 140 to 142 °C

compound CCOC(=O)CCN=c1sc2ccccc2s1 , melting point observed: 61 to 62 °C

----------
test_readout: melting point

CCN1CCCN(c2c(C)cccc2Cl)C1=S: 88 to 90 °C
CCOc1ccc2c(c1)n(CCN(C(C)C)C(C)C)c(=O)n2S(=O)(=O)c1ccc(OC)cc1OC: 132 °C
COC(=O)CC1(c2c(C)c(OC)c(C)c(C)c2OC)C=CC2=NCOC2=C1 (centres undefined): 68 to 69 °C

Now for a further molecule.
molecule N#Cc1ccc2c(c1)S(=O)c1ccccc1CC2=O (centres undefined) , melting point observed: 219 to 221 °C

----------
test_readout: melting point

CC(C)(C)NC(=NC#N)Nc1cnc2ccccc2c1: 228 to 229 °C

compound CN1C(=O)CCC2(C)c3ccc(CSc4ccccc4)cc3CCC12 (configuration not stated) , melting point observed: 144 to 146 °C

compound CC(C)(C)c1ccc2c(c1)C(C(=O)O)=Cc1ccccc1O2 , melting point observed: 72 °C

compound CN1CCN(CCCCCNc2ncc3cc(-c4c(Cl)cccc4Cl)c(=O)n(C)c3n2)CC1 , melting point observed: 110 to 112 °C

compound COC(=O)Nc1nc(C)c(-c2nc3ccccc3c(=O)n2-c2ccccc2)s1 , melting point observed: > 275 °C

compound COc1cc2c(Cl)c(C#N)cnc2cc1F , melting point observed: 160 to 162 °C

compound Cc1c(Br)cc2c(c1C)OC(=O)C2(C)c1ccc(C(C)C)cc1 (configuration not stated) , melting point observed: 116 to 117 °C

compound CC(=O)Oc1ccc(-c2cnc(N(S(=O)(=O)Cc3ccccc3)S(=O)(=O)Cc3ccccc3)c(Cc3ccccc3)n2)cc1 , melting point observed: 84 to 86.5 °C

compound O=C(Nc1cccc2c1C(=O)c1c-2n[nH]c1-c1ccc(N2CCNCC2)cc1)NN1CCC[C@@H]1COCc1ccccc1 , melting point observed: 207 °C

----------
Listed here are molecules together with their documented melting point.

Illustrative cases are given below, each with its answer.
O=c1c2ccccc2sc2ccc(N3CCOCC3)cc12: 166 to 167 °C
COc1cc(CNC(=O)c2nc3ccc(F)c(OCCc4ccc(-c5c(O)noc5C)cc4)c3c(=O)[nH]2)ccc1F: 240 to 242 °C
O=C(O)Cc1cccc(C(=O)c2cccs2)c1Cl: 112 °C
CC(=O)Nc1nc2ccc(S(=O)(=O)n3c(CCC(=O)O)cc4cc(Cl)ccc43)cc2s1: > 250 °C
CC1(C)Oc2ccc(Br)cc2C(n2ccccc2=O)=C1CN(O)C(N)=S: 219 °C
CCOCc1nc2c(N)nc3ccccc3c2n1CC1CC(c2ccccc2)N(C)O1 (configuration not stated): 162 to 163 °C

molecule O=C(O)c1ccc(-c2ccc3cc(OCc4ccccc4)c(C45CC6CC(CC(C6)C4)C5)cc3c2)cc1O , melting point observed: 263 to 264 °C

----------
Listed here are molecules together with their documented melting point.

Illustrative cases are given below, each with its answer.
Cc1ccc(-c2ccc(S(C)(=O)=O)cc2)n1-c1ccc(Br)cc1: 200 to 202 °C
O=C1NCCc2c(-c3cccc(Oc4ccc(F)cc4)c3)[nH]c3cccc1c23: 240 to 241 °C
CCOC(=O)CNC(=O)[C@@H](C)NC(=O)CNC(=O)CSC(=O)c1ccccc1: 137 °C
CC(C)[C@@H](NC(=O)OC(C)(C)C)[C@H]1CCn2c(cc3ccccc32)C1: 122 to 124 °C
Cn1c2ccc(C=O)cc2c2nc3ccccc3nc21: 228 to 230 °C

molecule CC(C)C(=O)NC(=O)c1cccc(-c2noc(-c3ccccc3F)n2)c1 , melting point observed: 183 to 184 °C

----------
Listed here are compounds together with their documented melting point.

Illustrative cases are given below, each with its answer.
Cc1cc(C)n(C(=O)C(NS(=O)(=O)c2ccc(Cl)cc2)c2ccccc2)n1 (centres undefined): 160 °C
Clc1nc2ncnn2c(NC2CCCC2)c1-c1ccsc1: 78 °C
COc1cc(OC)c2c(=O)n(CCCN3CCCC3)c(-c3cc(C)c(OCCCN4CCCC4)c(C)c3)nc2c1: 109 to 111 °C
CCOC(=O)c1nc2ccc(OC)cc2nc1Cl: 75 °C
O=C(CCN1CCN(c2ccccc2)CC1)c1ccc2c(c1)Cc1cc(C(=O)CCN3CCN(c4ccccc4)CC3)ccc1O2: 206 to 208 °C
COC(=O)c1ccccc1NC(=S)NN(C)C: 149 to 152 °C

compound O=[N+]([O-])c1ccccc1S(=O)(=O)c1ccccc1 , melting point observed: 145 to 146 °C

compound CC(c1oc2ccccc2c(=O)c1-c1cccc(F)c1)n1nc(-c2cc3ccccc3s2)c2c(N)ncnc21 (centres undefined) , melting point observed: 242 to 245 °C

compound COc1ccc2c(cccc2[C@H]2CO[C@H](CCCNC(=O)OCc3nccn3C(c3ccccc3)(c3ccccc3)c3ccccc3)OC2)c1 , melting point observed: 130 to 132 °C

----------
test_readout: melting point

Illustrative cases are given below, each with its answer.
CCN(CC)S(=O)(=O)c1cc2c(ccc3nc(N)[nH]c(=O)c32)cc1Br: > 250 °C
COc1ccc(-c2ccc(C=CC(=O)O)s2)cc1C(C)(C)C: 218 to 219 °C
N#CCc1ccc(Oc2ccc3c(c2)S(=O)(=O)NC2CCCN32)cc1 (centres undefined): 156 to 158 °C
C#CCOc1cc(-n2c(=O)nc(N(C)C)n(C)c2=O)c(F)cc1Cl: 61 to 65 °C
C[N+](C)([O-])c1ccc(/C=C/c2c(Cl)cccc2Cl)cc1: 80 to 82 °C
COC1(c2ccc(CCc3cc(F)cc(F)c3NC(=O)C(C)(C)C)cc2)CCOCC1: 147 to 148 °C

Now for a further compound.
compound CC(=O)Nc1nc2ccc(S(=O)(=O)n3c(CCCC(=O)O)cc4cc(Cl)ccc43)cc2s1 , melting point observed: > 250 °C

----------
Listed here are compounds together with their documented melting point.

Illustrative cases are given below, each with its answer.
COC(=O)c1cc(=O)c2c(C(F)(F)F)c3c(=O)cc(C(=O)OC)[nH]c3c(Cl)c2[nH]1: 205 to 208 °C
COc1ccc2c(c1)CCC1=C2CCC2(CC(C)C)C(=O)CCC12 (configuration not stated): 117 to 119 °C
CC1(CO)CCN(c2ccc(C#N)c3ccccc23)CC1: 136 to 137 °C
CN1Cc2c(C(N)=O)ncn2-c2ccsc2C1=O: 294 to 296 °C
CC(C)C(c1ccc(CC(N)=O)cc1)n1ccnc1 (configuration not stated): 244 °C

compound CNC(=S)NS(=O)(=O)c1cc(CCNC(=O)c2cc(C(C)(C)C)ccc2OC)ccc1OC , melting point observed: 165 to 168 °C

compound COC(=O)c1cc(N)c(N2CCCCC2)c(N)c1 , melting point observed: 133 to 134 °C

----------
test_readout: melting point

compound O=C(O)c1cnc2ccc(C3CCCCC3)cc2c1O , melting point observed: 263 to 265 °C

compound COc1cc(-c2nc(-c3cc(OC)c(OCc4ccccc4)c(OC)c3)c(-c3cc(OC)c(OCc4ccccc4)c(OC)c3)o2)cc(OC)c1OCc1ccccc1 , melting point observed: 80 to 120 °C

compound CCOC=Nc1nc(-c2ccc(C3CCCCC3)cc2)cs1 , melting point observed: 84 to 85 °C
